Recorded values, source patent US12091411B2.

Biological target: IRAK4 (Homo sapiens)
Construct: Degradation of IRAK4 in OCI-LY10 was quantitatively measured using Meso Scale Discovery technology; endogenous in cells; host or cells: OCI-LY10
Assay: IRAK4 MSD Degradation in OCI-LY10
Format: cell-based
Details: OCI-LY10 cells, 4 hrs incubation, MSD; read-out: IRAK4 degradation in OCI-LY10 at 4 hrs: DC50
Reported DC50 is given for each of the following compounds.

Some solved cases for reference:
>>> reported_value("Cn1c(=O)n(C2CCC(=O)NC2=O)c2cccc(C3CCN(C[C@H]4CC[C@H](n5cc6cc(NC(=O)c7cccc(C(F)(F)F)n7)c(C#N)cc6n5)CC4)CC3(F)F)c21 (stereo partly drawn) [I-444]")
"> 200 nM"
>>> reported_value("CO[C@@H]1CN(c2cccc3c2n(C)c(=O)n3C2CCC(=O)NC2=O)CC[C@@H]1N(C)C[C@H]1CC[C@H](n2cc3cc(NC(=O)c4cccc(C(F)(F)F)n4)ccc3n2)CC1 (stereo partly drawn) [I-497]")
"> 200 nM"

Now consider the entry below.
I have this compound here, Cn1c(=O)n(C2CCC(=O)NC2=O)c2cccc(N3CCN(C[C@H]4CC[C@H](n5cc6cc(NC(=O)c7cccc(C(F)F)n7)ncc6n5)CC4)CC3)c21 (stereo partly drawn) [I-693] , and I need its recorded DC50. > 200 nM

---

Target: IRAK4 (Homo sapiens)
Construct: Degradation of IRAK4 in OCI-LY10 was quantitatively measured using Meso Scale Discovery technology; endogenous in cells; host or cells: OCI-LY10
Sequence (Q9NWZ3 1-460): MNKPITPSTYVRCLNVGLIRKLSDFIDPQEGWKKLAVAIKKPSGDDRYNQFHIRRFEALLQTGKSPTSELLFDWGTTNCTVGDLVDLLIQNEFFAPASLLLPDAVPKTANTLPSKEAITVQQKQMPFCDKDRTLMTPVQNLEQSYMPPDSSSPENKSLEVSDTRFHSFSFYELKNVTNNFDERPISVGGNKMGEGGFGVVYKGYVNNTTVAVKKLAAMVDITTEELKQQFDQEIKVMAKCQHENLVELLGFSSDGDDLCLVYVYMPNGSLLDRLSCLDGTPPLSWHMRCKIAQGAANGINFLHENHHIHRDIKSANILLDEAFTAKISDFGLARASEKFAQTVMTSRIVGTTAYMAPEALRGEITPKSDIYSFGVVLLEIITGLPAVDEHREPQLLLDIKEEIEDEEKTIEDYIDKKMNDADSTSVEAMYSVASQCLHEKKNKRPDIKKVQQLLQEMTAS
Assay: IRAK4 MSD Degradation in OCI-LY10
Type: cell-based
Conditions: OCI-LY10 cells, 24 hrs incubation, MSD; read-out: IRAK4 degradation in OCI-LY10 at 24 hrs: DC50
measured_endpoint: DC50

Some solved cases for reference:
>>> reported_value("C[C@H]1CN(C[C@H]2CC[C@H](n3cc(NC(=O)c4cnn5ccc(N6C[C@H]7C[C@@H]6CO7)nc45)c(C(F)F)n3)CC2)CC[C@H]1OCC#Cc1cccc2c1n(C)c(=O)n2C1CCC(=O)NC1=O (stereo partly drawn)")
"> 200 nM"
>>> reported_value("Cn1c(=O)n(C2CCC(=O)NC2=O)c2cccc(N3CCC(CN4CCN(C[C@H]5CC[C@H](n6cc(NC(=O)c7cnn8ccc(N9C[C@H]%10C[C@@H]9CO%10)nc78)c(C(F)F)n6)CC5)CC4)CC3)c21 (stereo partly drawn)")
"> 200 nM"

Now consider the entry below.
I have this compound here, COc1ccc2c(c1C#CCN1CCN(C[C@H]3CC[C@H](n4cc(NC(=O)c5cnn6ccc(N7C[C@H]8C[C@@H]7CO8)nc56)c(C(F)F)n4)CC3)CC1)n(C)c(=O)n2C1CCC(=O)NC1=O (stereo partly drawn) , and I need its recorded DC50. > 200 nM

---

Target: IRAK4 (Homo sapiens, UniProt Q9NWZ3)
Construct: Degradation of IRAK4 in OCI-LY10 was quantitatively measured using Meso Scale Discovery technology; endogenous in cells; host or cells: OCI-LY10
Sequence (Q9NWZ3 1-460): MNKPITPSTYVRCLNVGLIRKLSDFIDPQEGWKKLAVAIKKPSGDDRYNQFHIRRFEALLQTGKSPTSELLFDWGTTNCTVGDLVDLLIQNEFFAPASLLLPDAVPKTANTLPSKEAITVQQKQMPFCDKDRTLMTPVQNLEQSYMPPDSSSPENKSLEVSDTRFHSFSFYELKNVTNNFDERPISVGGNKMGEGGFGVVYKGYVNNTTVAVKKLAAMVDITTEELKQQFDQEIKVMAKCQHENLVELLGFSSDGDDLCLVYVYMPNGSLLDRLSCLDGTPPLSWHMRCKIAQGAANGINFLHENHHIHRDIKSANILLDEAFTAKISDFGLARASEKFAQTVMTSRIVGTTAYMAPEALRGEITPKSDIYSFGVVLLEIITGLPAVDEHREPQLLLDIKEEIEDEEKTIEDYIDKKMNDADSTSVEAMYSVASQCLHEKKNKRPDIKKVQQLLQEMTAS
Experiment: IRAK4 MSD Degradation in OCI-LY10
Assay type: cell-based
Settings: OCI-LY10 cells, 4 hrs incubation, MSD; read-out: IRAK4 degradation in OCI-LY10 at 4 hrs: DC50
measured_endpoint: DC50

>>> reported_value("CN(C[C@H]1CC[C@H](n2cc3cc(NC(=O)c4cccc(C(F)(F)F)n4)c(C(F)F)cc3n2)CC1)C1CCN(c2cccc3c2n(C)c(=O)n3C2CCC(=O)NC2=O)CC1(F)F (some centres unmarked) [I-476]")
"> 200 nM"

I have this compound here, Cn1c(=O)n(C2CCC(=O)NC2=O)c2ccc(N3CC4(CCN(C[C@H]5CC[C@H](n6cc7cc(NC(=O)c8cccc(C(F)(F)F)n8)ncc7n6)CC5)CC4(F)F)C3)c(F)c21 (some centres unmarked) [I-737] , and I need its recorded DC50. > 200 nM

I have this compound here, CN(C)c1ccn2ncc(C(=O)Nc3cn([C@H]4CC[C@H](CN(C)C5CCN(c6cccc7c6n(C)c(=O)n7C6CCC(=O)NC6=O)CC5(F)F)CC4)nc3C(F)F)c2n1 (some centres unmarked) [I-484] , and I need its recorded DC50. > 200 nM

---

Target: IRAK4 (Homo sapiens, UniProt Q9NWZ3)
Construct: Degradation of IRAK4 in OCI-LY10 was quantitatively measured using Meso Scale Discovery technology; endogenous in cells; host or cells: OCI-LY10
Assay: IRAK4 MSD Degradation in OCI-LY10
Assay type: cell-based
Details: OCI-LY10 cells, 4 hrs incubation, MSD; read-out: IRAK4 degradation in OCI-LY10 at 4 hrs: DC50
measured_endpoint: DC50

>>> reported_value("Cn1c(=O)n(C2CCC(=O)NC2=O)c2cccc(C#CCN3CCN(C[C@H]4CC[C@H](n5cc(NC(=O)c6cnn7ccc(N8C[C@H]9OC[C@@H]8O9)nc67)c(C(F)F)n5)CC4)CC3)c21 (stereo partly shown) [I-44]")
"10 to 100 nM"
>>> reported_value("Cn1c(=O)n(C2CCC(=O)NC2=O)c2cccc(C#CCOC3CCN(C[C@H]4CC[C@H](n5cc(NC(=O)c6ccn7ccc(N8C[C@@H]9C[C@H]8CO9)nc67)c(C(F)F)n5)CC4)CC3)c21 (stereo partly shown) [I-232]")
"> 200 nM"
>>> reported_value("Cn1c(=O)n(C2CCC(=O)NC2=O)c2cccc(C3CN([C@H]4CCN(C[C@H]5CC[C@H](n6cc7cc(NC(=O)c8cccc(C(F)(F)F)n8)ccc7n6)CC5)C[C@@H]4F)C3)c21 (stereo partly shown) [I-671]")
"> 200 nM"

Checklist item: DC50 tested on IRAK4 (Homo sapiens, UniProt Q9NWZ3), entry O=C1CCN(c2cc(C#CCN3CCN(C[C@H]4CC[C@@H](n5cc(NC(=O)c6cnn7ccc(N8C[C@H]9C[C@@H]8CO9)nc67)c(C(F)F)n5)CC4)CC3)ccc2Cl)C(=O)N1 [I-258] , value? > 200 nM

Checklist item: DC50 tested on IRAK4 (Homo sapiens, UniProt Q9NWZ3), entry Cn1c(=O)n(C2CCC(=O)NC2=O)c2cccc(C3=CCN(C[C@H]4CC[C@H](n5cc6cc(NC(=O)c7cccc(C(F)(F)F)n7)ccc6n5)CC4)CC3F)c21 (stereo partly shown) [I-457] , value? > 200 nM

Checklist item: DC50 tested on IRAK4 (Homo sapiens, UniProt Q9NWZ3), entry COc1ccc2c(c1C#CCO[C@@H]1CCN(C[C@H]3CC[C@H](n4cc(NC(=O)c5cnn6ccc(N7C[C@H]8C[C@@H]7CO8)nc56)c(C(F)F)n4)CC3)C[C@H]1C)n(C)c(=O)n2C1CCC(=O)NC1=O (stereo partly shown) [I-64] , value? < 10 nM

Checklist item: DC50 tested on IRAK4 (Homo sapiens, UniProt Q9NWZ3), entry Cn1c(=O)n(C2CCC(=O)NC2=O)c2cccc(N3CCC(CN4CCN(C[C@H]5CC[C@H](n6cc(NC(=O)c7cnn8ccc(N9C[C@H]%10C[C@@H]9CO%10)nc78)c(C(F)F)n6)CC5)CC4)CC3)c21 (stereo partly shown) [I-164] , value? < 10 nM

Checklist item: DC50 tested on IRAK4 (Homo sapiens, UniProt Q9NWZ3), entry COc1ccc2c(c1C#CCO[C@H]1CCN(C[C@H]3CC[C@H](n4cc(NC(=O)c5cnn6ccc(N7C[C@H]8C[C@@H]7CO8)nc56)c(C(F)F)n4)CC3)C[C@H]1F)n(C)c(=O)n2C1CCC(=O)NC1=O (stereo partly shown) [I-51] , value? 10 to 100 nM

Checklist item: DC50 tested on IRAK4 (Homo sapiens, UniProt Q9NWZ3), entry Cn1c(=O)n(C2CCC(=O)NC2=O)c2cccc(C#CCN3CCN([C@H]4CC[C@H](n5cc(NC(=O)c6cnn7ccc(N8C[C@H]9C[C@@H]8CO9)nc67)c(C(F)F)n5)CC4)CC3)c21 (stereo partly shown) [I-340] , value? > 200 nM

Checklist item: DC50 tested on IRAK4 (Homo sapiens, UniProt Q9NWZ3), entry CC(C)(O)c1cc2nn([C@H]3CC[C@H](CNCCCNc4cccc5c4C(=O)N(C4CCC(=O)NC4=O)C5=O)CC3)cc2cc1NC(=O)c1cccc(C(F)(F)F)n1 (stereo partly shown) [I-146] , value? > 200 nM
